test: decreased DLD-1 cellular survival, CellTiter-Glo luminescent readout, NPC compound collection, primary HTS (AID 1117346); conditions: DLD-1 viability, CellTiter-Glo luminescence; at 20 µM (top of the series)
Active and inactive are the calls of the source.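 The calls were made as follows: active = compounds that lower survival of DLD-1 colon cancer cells in the luminescence readout, no cutoff given; inactive = the rest.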
measured_attribute: viability decrease (inhibition)

{"columns": ["compound", "viability decrease (inhibition)"],
 "data": [
  ["CCCCCCCCCCCC[N+](C)(C)CCOc1ccccc1", "101% (active)"],
  ["Cc1ncsc1CCCl", "72.4% (active)"],
  ["CC(Cc1ccccc1)NC=O (centres undefined)", "-4.6% (inactive)"],
  ["O=[N+]([O-])O[C@H]1CO[C@H]2[C@@H]1OC[C@H]2O[N+](=O)[O-]", "-9.7% (inactive)"],
  ["Fc1ccc(C(OCCN2CCN(CCCc3ccccc3)CC2)c2ccc(F)cc2)cc1", "102% (active)"]
]}

The record that follows has no viability decrease (inhibition) shown yet.
Q: Dear colleague, I am looking for the recorded viability decrease (inhibition) of the following compound: C#C[C@]1(O)C=C[C@H]2[C@@H]3CCC4=CC(=O)CC[C@@H]4[C@H]3CC[C@@]21CC
Result: -11.8% (inactive)

###

Reported fold change values for a set of compounds
experiment: sensitizers of A549 cells to miR-34 induction, primary screen, imaging, A549 dox-inducible miR-34, nuclei and caspase counts (AID 1347080); settings: A549 miR-34 inducible, Hoechst nuclei count, 48 h; stronger effect = lower value; cell number ratio, induced over uninduced
// response body must contain only the number

Here's what some known entries look like.
{"columns": ["compound", "fold change"],
 "data": [
  ["CCCCCOc1c(OC)ccc2cc(C(=O)NCc3ccc4c(c3)OCO4)c(=O)[nH]c12", 1.04],
  ["C#CCOC(=O)C1=CCCN(C)C1", 0.926],
  ["CC1OC(OC2CC(O)[C@]3(CO)[C@H]4C(O)C[C@]5(C)C(C6=CC(=O)OC6)CC[C@]5(O)[C@@H]4CC[C@]3(O)C2)C(O)C(O)C1O (some centres undefined)", 0.851],
  ["O=S(=O)(F)Cc1ccccc1", 0.924],
  ["CCCCC/C=C\\C/C=C\\C/C=C\\C/C=C\\CCCC(=O)NCCCC(=O)O", 0.955],
  ["C[N+]1([O-])[C@@H]2CC(OC(=O)[C@H](CO)c3ccccc3)C[C@H]1[C@@H]1O[C@@H]12 (some centres undefined)", 0.882],
  ["N[C@H]1C[C@@H]1c1ccccc1", 0.985],
  ["O=C(O)C1=CCCN(CCOC(c2ccc(C(F)(F)F)cc2)c2ccc(C(F)(F)F)cc2)C1", 0.921],
  ["CCCCCCC(=O)CCCCCC/C=C/C[C@@H](O)[C@H](O)[C@@](N)(CO)C(=O)O", 0.991],
  ["CCC1C=CC=CCC(C)C(O)C(C)C(=O)C(C)C(O)C(C)C(=O)C(C)C(O)C(C)C=CC(=O)OC2C(C)C(CC1)O[C@@]1(CCC(C)C(CC(C)O)O1)C2C (some centres undefined)", 1.03]
]}

Q: fold change for CN(C)C1C(=O)C(C(N)=O)=C(O)[C@@]2(O)C(=O)C3=C(O)c4c(O)cccc4[C@@](C)(O)[C@H]3C(O)[C@@H]12 (some centres undefined) ?
Result: 0.897

Q: Consider next the compound CCc1c(C(=O)C(N)=O)c2c(OCC(=O)O)cccc2n1Cc1ccccc1 in the same way.
Result: 0.89

Q: Same thing, different compound: CCCCC/C=C\C/C=C\C/C=C\C/C=C\CCCC(=O)N(C)C
Result: 0.925
